Test: Conversion rate (CR) assay with fluorescamine
Assay type: physicochemical
Conditions: Fig. S7 panel B; conversion rate, fluorescamine assay
CR / % less than 60% is yes; CR / % greater than or equal to 60% is no.

Here are 5 substances together with their reported answers.
* KIKIQIII | no
* CKAKAQA | yes
* KFKFQFNM | no
* HLHLPLL | yes
* EIKIQINM | yes

// switching to the query substance
stdin: Just wondering, is CR / % of MKFKFQF below 60%?
stdout: no

----------
Assay: Turbidity, derived count rate of scattered light
Type: physicochemical
Conditions: turbidity, derived count rate of scattered light, log10; data of Figure 2D
readout: Log10 Count Rate
Number, no unit, nothing else.

• KVKVKVQV = 1.975
• KIKIQI = 2.035
• QCKFKFQFNMWQ = 3.082
• KFKFKFQF = 3.015

stdin: Return reported Log10 Count Rate; argument: KIKIQIC
stdout: 2.992

All figures here come from paper PMC10447463.
